TEST SYSTEM: Acetylcholinesterase (Homo sapiens)
METHOD DESCRIPTION: Inhibition of recombinant human AChE using acetylthiocholine iodide as substrate measured after 7 mins by Ellman's method
Each entry below carries its reported IC50.
Answer format reminder: number followed by unit.

O=C(c1ccccc1)c1c(C2CCN(Cc3ccccc3)CC2)oc2ccccc12 | 41.3 µM
Oc1ccc(CN2CCC(c3cc4ccccc4o3)CC2)cc1 | 34.9 µM

Fill in: IC50 of COc1ccc(CN2CCC(c3oc4ccccc4c3C(=O)c3ccccc3)CC2)cc1OC is ___
45.3 µM

Which IC50 reading was recorded for the molecule Clc1ccc(CN2CCC(c3cc4ccccc4o3)CC2)cc1 ?
98.5 µM

// returns reported IC50 for input CCc1ccc(CN2CCC(c3cc4ccccc4o3)CC2)cc1
64.2 µM

Would you mind telling me what IC50 value was observed for COc1ccc(CN2CCC(c3oc4ccccc4c3C(=O)c3ccccc3)CC2)cc1 ?
97.1 µM

# query: IC50 of entry COc1ccc(C(=O)c2c(C3CCN(Cc4cc(OC)ccc4OC)CC3)oc3ccccc23)cc1
61 µM

I am curious: what IC50 value has been reported for c1ccc2oc(C3CCNCC3)cc2c1 ?
61.2 µM

* * *

Entries annotated with measured Selectivity Index
Species: Homo sapiens
METHOD DESCRIPTION: Selectivity index, ratio of IC50 for human BuChE to IC50 for human AChE
API note: the answer field is a bare number with no unit suffix.

Recorded Selectivity Index, per entry:
c1ccc(CN2CCC(c3cc4ccccc4o3)CC2)cc1 | 10.8
COc1ccc(OC)c(CN2CCC(c3cc4ccccc4o3)CC2)c1 | 0.04

# ---- query compound ----
Look up Selectivity Index: COc1ccc(CN2CCC(c3cc4ccccc4o3)CC2)cc1OC
1.2

* * *

TEST SYSTEM: Cholinesterase (Homo sapiens, UniProt P06276)
Sequence (P06276 whole entry): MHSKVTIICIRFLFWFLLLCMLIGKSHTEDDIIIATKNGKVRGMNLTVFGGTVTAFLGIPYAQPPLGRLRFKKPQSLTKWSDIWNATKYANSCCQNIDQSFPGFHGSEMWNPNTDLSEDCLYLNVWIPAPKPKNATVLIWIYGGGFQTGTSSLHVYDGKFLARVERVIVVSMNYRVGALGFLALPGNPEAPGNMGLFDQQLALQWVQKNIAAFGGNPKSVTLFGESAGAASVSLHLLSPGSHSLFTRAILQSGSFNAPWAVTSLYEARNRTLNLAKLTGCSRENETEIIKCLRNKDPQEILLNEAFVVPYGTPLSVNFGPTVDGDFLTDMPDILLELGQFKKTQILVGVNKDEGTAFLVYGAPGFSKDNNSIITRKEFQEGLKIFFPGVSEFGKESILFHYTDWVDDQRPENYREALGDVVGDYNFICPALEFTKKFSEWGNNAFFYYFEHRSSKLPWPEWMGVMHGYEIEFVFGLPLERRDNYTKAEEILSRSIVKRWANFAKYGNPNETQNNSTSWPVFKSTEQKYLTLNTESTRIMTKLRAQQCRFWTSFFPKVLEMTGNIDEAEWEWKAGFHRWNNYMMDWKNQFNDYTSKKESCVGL
METHOD DESCRIPTION: Inhibition of recombinant human BuChe using S-butyrylthiocholine iodide as substrate measured after 7 mins by Ellman's method
MEASURED PROPERTY: IC50 (µM)
Quick note: give the figure in µM, leave out the unit.

Examples with their reported IC50 follow.
Fc1ccc(CN2CCC(c3cc4ccccc4o3)CC2)cc1 | 55.8
COc1ccc(C(=O)c2c(C3CCN(Cc4cc(OC)ccc4OC)CC3)oc3ccccc23)cc1 | 61.7
COc1ccc(OC)c(CN2CCC(c3oc4ccccc4c3C(=O)c3ccc(OC)c(OC)c3)CC2)c1 | 66.3

Which IC50 is listed for COc1ccc(CN2CCC(c3cc4ccccc4o3)CC2)cc1OC ?
64.6

* * *

Entries and their pIC50 values follow.
TEST SYSTEM: Acetylcholinesterase (Homo sapiens, UniProt P22303)
Sequence (P22303 whole entry): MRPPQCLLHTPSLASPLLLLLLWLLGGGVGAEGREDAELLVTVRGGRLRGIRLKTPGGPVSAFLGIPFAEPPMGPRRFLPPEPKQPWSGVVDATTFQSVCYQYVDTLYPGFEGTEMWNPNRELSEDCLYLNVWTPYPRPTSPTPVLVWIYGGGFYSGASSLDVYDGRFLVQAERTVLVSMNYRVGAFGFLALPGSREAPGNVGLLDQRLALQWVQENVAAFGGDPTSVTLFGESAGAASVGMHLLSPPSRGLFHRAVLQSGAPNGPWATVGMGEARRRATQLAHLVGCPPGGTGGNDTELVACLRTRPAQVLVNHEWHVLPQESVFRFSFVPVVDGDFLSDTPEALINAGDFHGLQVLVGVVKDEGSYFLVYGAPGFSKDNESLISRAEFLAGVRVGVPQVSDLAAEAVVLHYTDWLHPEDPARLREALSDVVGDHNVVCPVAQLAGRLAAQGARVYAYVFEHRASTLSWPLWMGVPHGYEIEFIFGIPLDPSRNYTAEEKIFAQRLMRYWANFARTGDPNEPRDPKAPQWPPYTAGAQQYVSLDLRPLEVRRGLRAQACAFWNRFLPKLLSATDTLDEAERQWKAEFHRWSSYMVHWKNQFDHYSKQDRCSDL
METHOD DESCRIPTION: Inhibition of recombinant human AChE using acetylthiocholine iodide as substrate measured after 7 mins by Ellman's method
Scale: negative log10 of molar concentration, which is what pIC50 denotes.

These solved cases illustrate the format of a correct answer.
COc1ccc(OC)c(CN2CCC(c3cc4ccccc4o3)CC2)c1 | 4.62
c1ccc(CN2CCC(c3cc4ccccc4o3)CC2)cc1 | 5.29
COc1ccc(C(=O)c2c(C3CCN(Cc4ccccc4)CC3)oc3ccccc23)cc1 | 4.32
COc1ccc(OC)c(CN2CCC(c3oc4ccccc4c3C(=O)c3ccccc3)CC2)c1 | 4.24

Give its pIC50 value. Item: COc1ccc(CN2CCC(c3cc4ccccc4o3)CC2)cc1OC
4.28

Would you mind telling me what pIC50 value was observed for Fc1ccc(CN2CCC(c3cc4ccccc4o3)CC2)cc1 ?
4.67

* * *

METHOD DESCRIPTION: Cytotoxicity against human SH-SY5Y cells assessed as cell viability at 10 uM measured after 48 hrs by MTT assay relative to control
STATED CONDITIONS: SH-SY5Y cells
MEASURED PROPERTY: viability at 48 h, 10 µM (%)
Just the number please, in %, no unit attached.

COc1ccc(C(=O)c2c(C3CCN(Cc4ccccc4)CC3)oc3ccccc23)cc1 | 107
Fc1ccc(CN2CCC(c3cc4ccccc4o3)CC2)cc1 | 101
O=C(c1ccccc1)c1c(C2CCN(Cc3ccccc3)CC2)oc2ccccc12 | 107
COc1ccc(OC)c(CN2CCC(c3cc4ccccc4o3)CC2)c1 | 102
COc1cc(/C=C/C(=O)CC(=O)/C=C/c2ccc(O)c(OC)c2)ccc1O [CURCUMIN] | 60

Recorded viability at 48 h, 10 µM of c1ccc(CN2CCC(c3cc4ccccc4o3)CC2)cc1 , please.
105

Consider the compound Oc1ccc(CN2CCC(c3cc4ccccc4o3)CC2)cc1 and give its measured viability at 48 h, 10 µM.
96.4

* * *

Activity for assorted molecules
Tested on: SH-SY5Y
METHOD DESCRIPTION: Neuroprotective activity against amyloid beta (25 to 35)-induced cell damage in human SH-SY5Y cells assessed as neuronal viability at 10 uM measured after 24 hrs in presence of amyloid beta (25 to 35) by MTT assay (reference value: 68.66 +/- 0.11 %)
Type: functional

The cases that follow already have their Activity on record.
c1ccc(CN2CCC(c3cc4ccccc4o3)CC2)cc1 | 88.91%
O=C(c1ccccc1)c1c(C2CCN(Cc3ccccc3)CC2)oc2ccccc12 | 76.06%
COc1ccc(C(=O)c2c(C3CCN(Cc4ccccc4)CC3)oc3ccccc23)cc1 | 75.17%
COc1cc(/C=C/C(=O)CC(=O)/C=C/c2ccc(O)c(OC)c2)ccc1O | 45.95%
Fc1ccc(CN2CCC(c3cc4ccccc4o3)CC2)cc1 | 80.8%
COc1ccc(OC)c(CN2CCC(c3cc4ccccc4o3)CC2)c1 | 79.09%

Please look at the following molecule next.
# get_value(readout='Activity', item= COc1cc2c(cc1OC)C(=O)C(CC1CCN(Cc3ccccc3)CC1)C2 (configuration not stated) )
60.82%

* * *

METHOD DESCRIPTION: Cytotoxicity against human SH-SY5Y cells assessed as cell viability at 10 uM measured after 48 hrs by MTT assay relative to control
STATED CONDITIONS: sh-sy5y
MEASURED PROPERTY: viability at 48 h, 10 µM (%)
# value in %; strip the unit string

Would you kindly share the measured viability at 48 h, 10 µM for COc1cc2c(cc1OC)C(=O)C(CC1CCN(Cc3ccccc3)CC1)C2 (stereo unspecified) ?
101

* * *

Species: Homo sapiens
METHOD DESCRIPTION: Selectivity index, ratio of IC50 for human BuChE to IC50 for human AChE
MEASURED PROPERTY: Selectivity Index

c1ccc2oc(C3CCNCC3)cc2c1 | 1
COc1ccc(C(=O)c2c(C3CCN(Cc4cc(OC)ccc4OC)CC3)oc3ccccc23)cc1 | 1.01
COc1ccc(CN2CCC(c3oc4ccccc4c3C(=O)c3ccccc3)CC2)cc1 | 0.6
COc1ccc(C(=O)c2c(C3CCN(Cc4ccccc4)CC3)oc3ccccc23)cc1 | 1.07
COc1ccc(OC)c(CN2CCC(c3oc4ccccc4c3C(=O)c3ccccc3)CC2)c1 | 0.45
Fc1ccc(CN2CCC(c3cc4ccccc4o3)CC2)cc1 | 2.6

What Selectivity Index value was documented for this compound, COc1ccc(OC)c(CN2CCC(c3oc4ccccc4c3C(=O)c3ccc(OC)c(OC)c3)CC2)c1 ?
1.19

* * *

TEST SYSTEM: Amyloid-beta precursor protein (Homo sapiens)
Sequence (P05067 whole entry): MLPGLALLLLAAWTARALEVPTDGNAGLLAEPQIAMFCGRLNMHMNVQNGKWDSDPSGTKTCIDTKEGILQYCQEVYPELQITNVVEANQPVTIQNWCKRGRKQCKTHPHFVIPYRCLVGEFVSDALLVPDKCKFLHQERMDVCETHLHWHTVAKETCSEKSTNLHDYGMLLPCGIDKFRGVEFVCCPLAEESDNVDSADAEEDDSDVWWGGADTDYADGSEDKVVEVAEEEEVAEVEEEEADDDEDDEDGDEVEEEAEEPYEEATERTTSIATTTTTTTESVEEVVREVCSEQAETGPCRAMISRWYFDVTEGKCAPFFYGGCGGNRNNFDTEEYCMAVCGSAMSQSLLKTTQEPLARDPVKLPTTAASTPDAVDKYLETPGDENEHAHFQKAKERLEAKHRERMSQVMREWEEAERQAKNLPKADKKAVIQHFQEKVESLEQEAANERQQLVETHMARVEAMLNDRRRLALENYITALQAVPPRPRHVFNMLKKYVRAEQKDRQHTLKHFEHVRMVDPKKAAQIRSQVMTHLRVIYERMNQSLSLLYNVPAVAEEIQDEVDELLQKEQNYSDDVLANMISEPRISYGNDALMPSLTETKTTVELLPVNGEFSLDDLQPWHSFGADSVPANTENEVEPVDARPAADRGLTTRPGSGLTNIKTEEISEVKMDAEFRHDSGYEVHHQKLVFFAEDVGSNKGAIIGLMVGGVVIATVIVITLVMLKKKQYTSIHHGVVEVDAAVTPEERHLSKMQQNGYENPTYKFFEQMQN
METHOD DESCRIPTION: Inhibition of human amyloid beta (25 to 35) self-induced aggregation at 100 uM after 48 hrs by thioflavin-T fluorescence relative to control
Parameter threshold = 50%. Response is met when inhibition meets or exceeds it, else not met.

c1ccc(CN2CCC(c3cc4ccccc4o3)CC2)cc1 | met

# check: inhibition of COc1ccc(OC)c(CN2CCC(c3oc4ccccc4c3C(=O)c3ccccc3)CC2)c1 is greater than or equal to 50%
not met

Evaluate COc1ccc(OC)c(CN2CCC(c3cc4ccccc4o3)CC2)c1 : inhibition at minimum 50%?
met

# bool: inhibition of COc1ccc(OC)c(CN2CCC(c3oc4ccccc4c3C(=O)c3ccc(OC)c(OC)c3)CC2)c1 >= 50%
not met

Please tell me: is the compound O=C(c1ccccc1)c1c(C2CCN(Cc3ccccc3)CC2)oc2ccccc12 at or over 50% in terms of inhibition?
met

* * *

TEST SYSTEM: Acetylcholinesterase (Homo sapiens, UniProt P22303)
METHOD DESCRIPTION: Inhibition of recombinant human AChE using acetylthiocholine iodide as substrate measured after 7 mins by Ellman's method
MEASURED PROPERTY: pIC50
Entry type: numeric. Quantity: pIC50, the -log10 of concentration in molar units.

Example compounds with recorded pIC50:
COc1ccc(CN2CCC(c3oc4ccccc4c3C(=O)c3ccc(OC)c(OC)c3)CC2)cc1OC | 4.17
COc1ccc(CN2CCC(c3oc4ccccc4c3C(=O)c3ccc(OC)cc3)CC2)cc1 | 4.22
COc1ccc(OC)c(CN2CCC(c3oc4ccccc4c3C(=O)c3ccc(OC)c(OC)c3)CC2)c1 | 4.26

State the recorded pIC50 for this entry: COc1ccc(CN2CCC(c3cc4ccccc4o3)CC2)cc1
4.03
